# ASSAY PROCEDURE: collision cross section in nitrogen (drift tube, single-field); higher = larger gas-phase ion size;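 also: chemical standards at 10 µM analysed by drift tube IMS-QTOF MS in about 3.95 torr nitrogen, mean of duplicate injections differing ≤1%, mass error below 10 ppm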
# SETTINGS: ion type: [M+Na]; ion source: ESI; ion mode: Positive
Counter-ions that a name gives are not always drawn.
Label scheme for collision cross section in nitrogen: lower than 200 Å² is 0, 200 Å² and above is 1.

1. CCCCOCN(C(=O)CCl)c1c(CC)cccc1CC [Butachlor] | 0
2. CN(C)[C@@H]1C(O)=C(C(N)=O)C(=O)[C@@]2(O)C(O)=C3C(=O)c4c(O)cccc4[C@@](C)(O)[C@H]3[C@H](O)[C@@H]12 [Oxytetracycline hydrochloride] | 1
3. CN1COCN(Cc2cnc(Cl)s2)C1=N[N+](=O)[O-] [Thiamethoxam] | 0
4. CCCCCCCCCCCCCC(=O)OCC(O)CO (racemic) [(+/-)-2,3-Dihydroxypropyl tetradecanoate] | 0
5. O=S(=O)(O)CCN1CCN(CCO)CC1 [Sodium 2-[4-(2-hydroxyethyl)piperazin-1-yl]ethanesulfonate] | 0
6. CN(C)CCOC(c1ccccc1)c1ccccc1 [Diphenhydramine hydrochloride] | 0
7. CCCCCCOC(=O)CC(CC(=O)OCCCCCC)(OC(=O)CCC)C(=O)OCCCCCC [Butyryl-n-trihexylcitrate] | 1

###

# ASSAY PROCEDURE: collision cross section in nitrogen (drift tube, single-field); higher = larger gas-phase ion size
# SETTINGS: ion type: [M+H]; ion source: ESI; ion mode: Positive
Where a name gives a salt, the structure may show the parent alone.
PROPERTY LABEL: collision cross section in nitrogen

1. COc1cc(Cl)c(OC)cc1N [2,5-Dimethoxy-4-chloroaniline] | 145 Å²
2. Nc1nc2nc[nH]c2c(=S)[nH]1 [6-Thioguanine] | 133.4 Å²
3. COc1ccc([C@@H]2Sc3ccccc3N(CCN(C)C)C(=O)[C@@H]2OC(C)=O)cc1 [Diltiazem hydrochloride] | 197.8 Å²
4. COc1cc(-c2ccc(N)c(OC)c2)ccc1N [C.I. Disperse Black 6] | 170 Å²
5. Nc1nc(Cl)nc2c1ncn2[C@H]1C[C@H](O)[C@@H](CO)O1 [Cladribine] | 157 Å²
6. OC[C@H]1O[C@@H]2O[C@H]3[C@H](O)[C@@H](O)[C@@H](O[C@H]4[C@H](O)[C@@H](O)[C@@H](O[C@H]5[C@H](O)[C@@H](O)[C@@H](O[C@H]6[C@H](O)[C@@H](O)[C@@H](O[C@H]7[C@H](O)[C@@H](O)[C@@H](O[C@H]1[C@H](O)[C@H]2O)O[C@@H]7CO)O[C@@H]6CO)O[C@@H]5CO)O[C@@H]4CO)O[C@@H]3CO [alpha-Cyclodextrin] | 277.8 Å²
7. NNc1nc(-c2ccc(N)cc2)cs1 [2-Hydrazino-4-(4-aminophenyl) thiazole] | 146.2 Å²

###

Reported collision cross section in nitrogen is given for each of the following molecules.
# ASSAY PROCEDURE: collision cross section in nitrogen (drift tube, single-field); higher = larger gas-phase ion size
# SETTINGS: ion type: [M+H]; ion source: ESI; ion mode: Positive
Structures can show the parent of a compound that is named as a salt.
PROPERTY LABEL: collision cross section in nitrogen (Å²)

1. CC(C)c1cccc(C(C)C)c1N=C=Nc1c(C(C)C)cccc1C(C)C [Bis(2,6-diisopropylphenyl)carbodiimide] | 190.5
2. NC(N)=Nc1nc(CSCCC(N)=NS(N)(=O)=O)cs1 [Famotidine] | 168.9
3. c1cnc2c(c1)ccc1cccnc12 [1,10-Phenanthroline hydrochloride hydrate] | 131.6
4. Cc1oc(-c2ccccc2)nc1CCOc1cccc2c1ccn2CCC(=O)O | 190.6
5. COC(=O)[C@@H](C)Oc1ccc(Oc2ncc(C(F)(F)F)cc2Cl)cc1 [Haloxyfop-P-methyl] | 185.1
6. CN(CCO)CC(O)Cn1cnc2c1c(=O)n(C)c(=O)n2C (stereo unspecified) [Xanthinol niacinate] | 171.7
7. CC1=NN(c2ccc(S(=O)(=O)O)cc2)C(=O)C1 | 162.7
8. CC(C)C1CCC(Cc2ccc(Cl)cc2)C1(O)Cn1cncn1 (stereo unspecified) [Ipconazole] | 173.8
9. CN1C(=O)N(c2ccccc2Br)Cc2cnc(Nc3ccc4c(c3)OCC(CO)O4)nc21 (stereo unspecified) | 218.9
10. CCn1cc(C(=O)O)c(=O)c2cc3c(cc21)OCO3 [Oxolinic acid] | 152.3
11. N#CCCN(CCO)c1ccccc1 [N-Cyanoethyl-hydroxyethyl aniline] | 142.8
12. CCn1cc(C(=O)O)c(=O)c2ccc(C)nc21 [Nalidixic acid] | 147.8
13. CN(C)C(=O)C(c1ccccc1)c1ccccc1 [Diphenamid] | 154.7
14. CNc1cnn(-c2cccc(C(F)(F)F)c2)c(=O)c1Cl [Norflurazon] | 162.4
15. OCCOCCN1CCN(C2=Nc3ccccc3Sc3ccccc32)CC1 [Quetiapine fumarate] | 192.3
16. O=Nc1ccc(Nc2ccccc2)cc1 [4-Nitrosodiphenylamine] | 144.2
17. CC1CN1P(=O)(N1CC1C)N1CC1C (stereo unspecified) [Metepa] | 143.2
18. O=C(Oc1ccc(Br)cc1)N1CCN2CCC1CC2 [4-Bromophenyl 1,4-diazabicyclo(3.2.2)nonane-4-carboxylate] | 178.5
19. NCCCN1CCOCC1 [4-Morpholinepropanamine] | 128.2
20. NC(=O)c1ccc(N)nc1 [6-aminopyridine-3-carboxamide] | 131.3
21. Nc1ccc(NCCO)c([N+](=O)[O-])c1 [HC Red 3] | 142.2
22. CC(C)N(C(=O)CCl)c1ccccc1 [Propachlor] | 143.2
23. CCC(=C(c1ccc(O)cc1)c1ccc(OCCN(C)C)cc1)c1ccccc1 [4-Hydroxytamoxifen] | 200.9
24. O=C(O)c1cc(N=Nc2ccc(S(=O)(=O)Nc3ccccn3)cc2)ccc1O [Sulfasalazine] | 203.6
25. CC1(C)CCC(Cc2ccc(Cl)cc2)C1(O)Cn1cncn1 (stereo unspecified) [Metconazole] | 169.1
26. C(=CNc1ccccc1)C=Nc1ccccc1 [N-(3-Anilino-2-propenylidene)aniline monohydrochloride] | 159.3
27. CC(C)(C)NC[C@H](O)COc1nsnc1N1CCOCC1 [Timolol maleate salt] | 176.5
28. Cc1oc(C)c(C(=O)Nc2ccccc2)c1C [Methfuroxam] | 153.3
29. CCc1cccc(C)c1N(C(=O)CCl)[C@@H](C)COC [S-Metolachlor] | 160.1
30. C[As+](C)(C)CC(=O)[O-] [Arsenobetaine] | 118
31. Cc1ccc2nc(-c3ccc(N)cc3)sc2c1S(=O)(=O)O [2-(4-Aminophenyl)-6-methylbenzothiazole sulfonic acid] | 171.7
32. CCn1nc(Cc2ccccc2)cc1C1CCN(C[C@H]2C[C@H](N(C)[C@@H](C(=O)O)C(C)C)C[C@@H]2c2cccc(F)c2)CC1 [MK-578] | 243.4
33. Cc1ccn2nc(S(=O)(=O)Nc3c(F)cccc3F)nc2n1 [Flumetsulam] | 167.7
34. Cc1cc2c(cc1C(F)(F)F)N(C(=O)Nc1ccc(Oc3cccnc3C)nc1)CC2 | 213.8
35. C=C(C)C(=O)NCCCN(C)C [N-(3-Dimethylaminopropyl)methacrylamide] | 137.1
36. CCOC(=O)c1ccc([C@H]2CC[C@H](NC[C@H](O)COc3ccc(O)c(NS(C)(=O)=O)c3)CC2)cc1 | 231.4

###

// reported collision cross section in nitrogen per item
# ASSAY PROCEDURE: collision cross section in nitrogen (drift tube, single-field); higher = larger gas-phase ion size
# SETTINGS: ion type: [M+H]; ion source: ESI; ion mode: Positive
Counter-ions that a name gives are not always drawn.
PROPERTY LABEL: collision cross section in nitrogen

1) NCCCN(CCO)CCO [2,2'-[(3-Aminopropyl)imino]diethanol] | 133.5 Å²
2) C#CCOC(=O)[C@@H](C)Oc1ccc(Oc2ncc(Cl)cc2F)cc1 | 178 Å²
3) C1CN(CCOCCN2CCOCC2)CCO1 | 152.2 Å²
4) COC(=O)N(OC)c1ccccc1COc1ccn(-c2ccc(Cl)cc2)n1 | 183.8 Å²
5) Clc1ccc(-c2nc3sccn3c2/C=N/OCc2ccc(Cl)c(Cl)c2)cc1 | 200.2 Å²
6) Cc1nccn1-c1ccc(Sc2cccc(C3(C(N)=O)CCOCC3)c2)cc1 | 196.8 Å²
7) CC(C)NCC(O)c1ccc(O)c(O)c1 (stereo not drawn) [Isoproterenol hydrochloride] | 151 Å²
8) Nc1nc(N)nc(NC2CC2)n1 | 135.9 Å²
9) Cc1ccc(C2OC[C@@H]3OC(c4ccc(C)cc4)O[C@H]([C@H](O)CO)[C@@H]3O2)cc1 (stereo partly drawn) | 193.1 Å²
10) COc1ncc(F)c2nc(S(=O)(=O)Nc3c(F)cccc3F)nn12 | 172.1 Å²
11) O=C1c2ccccc2C(=O)C1c1ccc2ccccc2n1 | 158.6 Å²
12) O=[N+]([O-])c1ccc([As](=O)(O)O)cc1 | 144.4 Å²
13) OC(Cn1cncn1)(Cn1cncn1)c1ccc(F)cc1F | 167.2 Å²
14) CCCCc1ccc(N)cc1 | 149.8 Å²
15) N[C@@H](Cc1cc(I)c(Oc2ccc(O)c(I)c2)c(I)c1)C(=O)O [3,5,3′-Triiodo-L-thyronine monosodium salt] | 204.8 Å²
16) CCCOC/C(=N\c1ccc(Cl)cc1C(F)(F)F)n1ccnc1 | 180 Å²
17) N=C1NC(=N)c2cc3ccccc3cc21 | 140.1 Å²
18) Cc1cc(CCN2CCN(c3nsc4ccccc34)CC2)cc2c1NC(=O)CC2(C)C | 202.4 Å²
